Read-out: Tumor necrosis factor receptor 1 (TNFRSF1A), TNFRSF1A (gene 7132)
Experiment: LTEA_HepaRG_TNFRSF1A: Life Technologies and Expression Analysis (LTEA) Assay for Tumor necrosis factor receptor 1 (TNFRSF1A) using HepaRG (AID 2283535)
Settings: mRNA level, 48 h; actives raise or lower the signal
Calls of active or inactive are those of the source. Rule for the calls: active = hit-call score of the fitted dose curve at least 0.9, where 1 is the maximum; inactive = score below 0.9.
TEST_READOUT: outcome

Solved entries (count: 5):
smiles_entry=O=C(O)c1cc(N=Nc2ccc(S(=O)(=O)Nc3ccccn3)cc2)ccc1O test_readout=outcome measured_result=inactive
smiles_entry=NC(=O)NO test_readout=outcome measured_result=inactive
smiles_entry=CC(C)=CCCC(C)=CC=O test_readout=outcome measured_result=inactive
smiles_entry=CC(C)(O)c1coc(S(=O)(=O)NC(=O)Nc2c3c(cc4c2CCC4)CCC3)c1 test_readout=outcome measured_result=inactive
smiles_entry=O=C(O)CCN(C1(C(=O)NO)CCCC1)S(=O)(=O)c1ccc(Oc2ccc(F)cc2)cc1 test_readout=outcome measured_result=inactive

May I ask what outcome has been recorded for `Cc1c(-c2cccnc2)c2ccccc2n1CCCCC(=O)O` ? inactive

----------
Assay: BSK_BE3C_SRB: Viability Assessment in the BioMAP Diversity Plus: BE3C Assay (AID 2283028);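 note: measured 24 h after chemical dosing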
Details: primary human bronchial epithelial cells
Calls of active or inactive are those of the source. Rule for the calls: active = hit-call score of the fitted dose curve at least 0.9, where 1 is the maximum; inactive = score below 0.9.
Hi there, use one of these labels in your reply, thanks! active, inactive

compound="CCCCC(CC)COC(=O)c1ccc(C(=O)OCC(CC)CCCC)cc1 (stereo unspecified)" classification=inactive
compound=Cc1ccc(C)c(O)c1 classification=inactive
compound=CCC(C)(C)C(=O)O[C@H]1C[C@@H](C)C=C2C=C[C@H](C)[C@H](CC[C@@H]3C[C@@H](O)CC(=O)O3)[C@H]21 classification=active
compound=C1=CCCC=CCCC=CCC1 classification=inactive
compound=COC(=O)CC(=O)OC classification=inactive

Each compound tested received a call. Report the one for `COc1ccc2sc(C(=O)Nc3nnn[nH]3)c(OC(C)C)c2c1` . inactive

----------
Read-out: Insulin-like growth factor-binding protein 1 (IGFBP1), IGFBP1 (gene 3484)
Assay: LTEA_HepaRG_IGFBP1: Life Technologies and Expression Analysis (LTEA) Assay for Insulin-like growth factor-binding protein 1 (IGFBP1) using HepaRG (AID 2283508)
Conditions: mRNA level, 48 h; actives raise or lower the signal
Calls of active or inactive are those of the source. Rule for the calls: active = hit-call score of the fitted dose curve at least 0.9, where 1 is the maximum; inactive = score below 0.9.
TEST_READOUT: AC50

molecule=Cc1ccc(S(=O)(=O)O)cc1C measured_result=inactive
molecule="O=c1[nH]c2ccc(S(=O)CCN3CCC(Cc4ccc(F)cc4)CC3)cc2o1 (stereo not given)" measured_result="89.7 µM (active)"
molecule=Nc1nc2ncc(CNc3ccc(C(=O)N[C@@H](CCC(=O)O)C(=O)O)cc3)nc2c(=O)[nH]1 measured_result=inactive
molecule=O=C1CCCCCN1 measured_result=inactive
molecule=CC(C)(O)c1coc(S(=O)(=O)NC(=O)Nc2c3c(cc4c2CCC4)CCC3)c1 measured_result=inactive

Hey, can you go through the list below and give me AC50 for every item?
1. Fc1ccccc1[C@@H](F)COC1CCC(Nc2ncnc3[nH]ncc23)CC1 (stereo not given in full)
2. CCOC(=O)CC(CC(=O)OCC)(OC(C)=O)C(=O)OCC
3. CCC(C)(C)C(=O)O[C@H]1C[C@@H](C)C=C2C=C[C@H](C)[C@H](CC[C@@H]3C[C@@H](O)CC(=O)O3)[C@H]21
4. COC(=O)c1c(Cl)c(Cl)c(C(=O)OC)c(Cl)c1Cl

1: 63.8 µM (active); 2: inactive; 3: inactive; 4: inactive

Hey, can you go through the list below and give me AC50 for every item?
1. Cc1c(-c2cccnc2)c2ccccc2n1CCCCC(=O)O
2. O=C(O)c1cccc(N(Cc2cccnc2)c2ccc(OC(F)F)c(OC(F)F)c2)c1
3. O=C(O)CC(O)C(=O)O (stereo not given)
4. CC(C)CC(C)(O)C#CC(C)(O)CC(C)C (stereo not given)
5. COc1ccc(/C=C/S(=O)(=O)NC(=O)c2ccc(C)cc2Cl)cc1
6. O=C1OC(=O)C2C3C=CC(C3)C12 (stereo not given)
7. CCCN(C1CCN(C(=O)C2CCNCC2)CC1)[C@@H]1CCc2ccc(OC)cc2C1
8. On1ccccc1=S

inactive
inactive
inactive
inactive
inactive
inactive
69.5 µM (active)
inactive

Hey, can you go through the list below and give me AC50 for every item?
1. Nc1cccc(N)c1
2. COCCOCCOCCOC
3. CCOC(=O)COc1ccc2c(c1)CC(NCC(O)c1cccc(Cl)c1)CC2 (stereo not given)
4. O=C(NS(=O)(=O)/C=C/c1ccccc1)c1ccc(F)cc1Cl
5. O=C(OC[C@H]1O[C@@H](OC(=O)c2cc(O)c(O)c(OC(=O)c3cc(O)c(O)c(O)c3)c2)[C@H](OC(=O)c2cc(O)c(O)c(OC(=O)c3cc(O)c(O)c(O)c3)c2)[C@@H](OC(=O)c2cc(O)c(O)c(OC(=O)c3cc(O)c(O)c(O)c3)c2)[C@@H]1OC(=O)c1cc(O)c(O)c(OC(=O)c2cc(O)c(O)c(O)c2)c1)c1cc(O)c(O)c(OC(=O)c2cc(O)c(O)c(O)c2)c1
6. CC(=O)c1ccc2c(c1)[C@H](NC(=O)c1ccc(F)cc1)[C@@H](O)C(C)(C)O2

1: inactive; 2: inactive; 3: inactive; 4: inactive; 5: 9.51 µM (active); 6: inactive

Hey, can you go through the list below and give me AC50 for every item?
1. CCn1nc(Cc2ccccc2)cc1C1CCN(C[C@H]2C[C@H](N(C)[C@@H](C(=O)O)C(C)C)C[C@@H]2c2cccc(F)c2)CC1
2. C1=CCCC=CCCC=CCC1
3. C1N2CN3CN1CN(C2)C3
4. COc1cccc(-c2ccc(/C=C\CN3CCCCCC3)cc2Cl)c1
5. O=C1CCC(N2C(=O)c3ccccc3C2=O)C(=O)N1 (stereo not given)
6. CCc1cc(SCc2sc(-c3ccc(C(F)(F)F)cc3)nc2CN2CCN(c3ccc(OC)cc3)CC2)ccc1OCC(=O)O
7. CC(C)=CCC/C(C)=C/CO

73.6 µM (active)
inactive
inactive
74.5 µM (active)
inactive
88.6 µM (active)
inactive

Hey, can you go through the list below and give me AC50 for every item?
1. Nc1ccc(Nc2ccccc2)cc1
2. CNCc1ccc(NC(=O)c2c[nH]c3c2C(=O)CCC3)cc1
3. O=c1n(CC2CO2)c(=O)n(CC2CO2)c(=O)n1CC1CO1 (stereo not given)
4. CC(C)CCCCCCOC(=O)c1ccc(C(=O)OCCCCCCC(C)C)c(C(=O)OCCCCCCC(C)C)c1
5. CCCCCCCCCCCCCCCO
6. Cc1ccc(O)cc1
7. COc1ccc(-n2nc(C(F)F)cc2-c2ccc(S(C)=O)cc2)cc1 (stereo not given)

1: inactive; 2: inactive; 3: inactive; 4: inactive; 5: inactive; 6: inactive; 7: inactive

Hey, can you go through the list below and give me AC50 for every item?
1. CC(C)c1cccc(C(C)C)c1N1C(=O)c2ccc(O)cc2C1=O
2. Cc1ccc(N)cc1O
3. O=C(O)c1cccc(Oc2ccccc2)c1
4. CC[C@H](C)C(=O)O[C@H]1C[C@@H](C)C=C2C=C[C@H](C)[C@H](CC[C@@H]3C[C@@H](O)CC(=O)O3)[C@H]21
5. CN(C)c1ccc(N=NS(=O)(=O)O)cc1
6. COc1ccc2sc(C(=O)Nc3nnn[nH]3)c(OC(C)C)c2c1
7. CC(C)CCCCCCCOC(=O)CCCCC(=O)OCCCCCCCC(C)C
8. CCOCCO

1. inactive
2. inactive
3. inactive
4. inactive
5. 75.3 µM (active)
6. 23.6 µM (active)
7. inactive
8. inactive

----------
Read-out: Thyroid Hormone Responsive (THRSP), THRSP (gene 7069)
Assay: LTEA_HepaRG_THRSP: Life Technologies and Expression Analysis (LTEA) Assay for Thyroid Hormone Responsive (THRSP) using HepaRG (AID 2283536)
Settings: mRNA level, 48 h; actives raise or lower the signal
Activity calls are given as the source filed them. Rule for the calls: active = hit-call score of the fitted dose curve at least 0.9, where 1 is the maximum; inactive = score below 0.9.
Hi there, use one of these labels in your reply, thanks! active, inactive

compound="CCCCC(CC)COC(=O)CCCCCCCCC(=O)OCC(CC)CCCC (stereo unspecified)" classification=inactive
compound="O=C1CCC(N2C(=O)c3ccccc3C2=O)C(=O)N1 (stereo unspecified)" classification=inactive
compound=COC(=O)c1ccccc1O classification=inactive

Each compound tested received a call. Report the one for `CC(C)c1cccc(C(C)C)c1N1C(=O)c2ccc(O)cc2C1=O` . active

Another compound to look at: `CC(C)=CCC/C(C)=C\CO` inactive

Another compound to look at: `COCCOc1cc2cc(C(=O)NC3CCN(C(C)C)CC3)n(CC(=O)Nc3ccc(Cl)cn3)c2cn1` active

Another compound to look at: `CCCN(C1CCN(C(=O)C2CCNCC2)CC1)[C@@H]1CCc2ccc(OC)cc2C1` active

Another compound to look at: `Cc1[nH]cnc1C[C@H]1CCc2c(C)c3ccccc3n2C1=O` inactive

Another compound to look at: `COc1ccc2sc(C(=O)Nc3nnn[nH]3)c(OC(C)C)c2c1` active

Another compound to look at: `CCNc1ccccc1` inactive

Another compound to look at: `Cn1c(=O)cc(Oc2ccc(F)cc2F)c2cnc(NCC(C)(C)O)nc21` inactive

Another compound to look at: `CCCCCCc1ccc(O)cc1O` inactive

Entry source: PubChem BioAssay (EPA / NIEHS)
